Values compiled from the supplement of paper PMC12645437.

Please respond with reported log2 fold change of degron read counts for every item in the list.
Molecular target: T1, CRBN, Q96SW2;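 also: pooled lentiviral library of zinc finger degron-EGFP fusions in mCherry-positive Jurkat cells, FACS-sorted after compound exposure, with degron abundance counted by next-generation sequencing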
T1 chain: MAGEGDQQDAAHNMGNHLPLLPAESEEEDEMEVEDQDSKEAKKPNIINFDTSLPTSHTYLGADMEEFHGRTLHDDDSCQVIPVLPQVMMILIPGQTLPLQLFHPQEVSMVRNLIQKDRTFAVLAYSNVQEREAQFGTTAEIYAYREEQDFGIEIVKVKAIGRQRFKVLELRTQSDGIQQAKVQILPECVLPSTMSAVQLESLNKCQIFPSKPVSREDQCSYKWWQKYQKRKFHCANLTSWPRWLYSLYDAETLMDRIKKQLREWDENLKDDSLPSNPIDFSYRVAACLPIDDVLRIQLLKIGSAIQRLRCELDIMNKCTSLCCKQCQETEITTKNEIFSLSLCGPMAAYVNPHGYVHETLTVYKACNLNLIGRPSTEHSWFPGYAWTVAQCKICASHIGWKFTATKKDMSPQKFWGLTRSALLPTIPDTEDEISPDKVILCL
Assay: log2 fold change of degron read counts, EGFP-low vs EGFP+ sorted cells (limma voom), compound-induced degradation; higher = more compound-induced degradation of the degron-EGFP fusion; degrons are variants of IKZF1/3 zinc finger 2; compound dose not given here
Settings: Jurkat; 18 h; compound: thalidomide
Whole data set: some 8,300 sequences, median “log2 fold change of degron read counts, EGFP-low vs EGFP+ sorted cells (limma voom), compound-induced degradation” near -1.1, cut for the highest 2% near 3.2. This excerpt belongs to a sample that is enriched for the highest values.

Recorded log2 fold change of degron read counts, per entry:
LECNQCGFWCTQKGNLLRHIKL [46L_47E_49N_50Q_52G_53F_54W_55C_67L_, Q9UKT9] | -1.63
FYCNVCGAVFTQKGNLLRHIKL [46F_47Y_49N_50V_52G_53A_54V_55F_67L_, Q9UKT9] | -1.56
LDCPICGFWCTQKGNLLRHIKL [46L_47D_49P_50I_52G_53F_54W_55C_67L_, Q9UKT9] | 1.33

Then this sequence:
The measured log2 fold change of degron read counts associated with FICNVCGAVFTQKGNLLRHIKL [46F_47I_49N_50V_52G_53A_54V_55F_67L_, Q9UKT9] reads -0.566
